- measured-target: T1, human GIP receptor (GIP-R) (human, UniProt P48546 22-466)
- T1 sequence (looked up): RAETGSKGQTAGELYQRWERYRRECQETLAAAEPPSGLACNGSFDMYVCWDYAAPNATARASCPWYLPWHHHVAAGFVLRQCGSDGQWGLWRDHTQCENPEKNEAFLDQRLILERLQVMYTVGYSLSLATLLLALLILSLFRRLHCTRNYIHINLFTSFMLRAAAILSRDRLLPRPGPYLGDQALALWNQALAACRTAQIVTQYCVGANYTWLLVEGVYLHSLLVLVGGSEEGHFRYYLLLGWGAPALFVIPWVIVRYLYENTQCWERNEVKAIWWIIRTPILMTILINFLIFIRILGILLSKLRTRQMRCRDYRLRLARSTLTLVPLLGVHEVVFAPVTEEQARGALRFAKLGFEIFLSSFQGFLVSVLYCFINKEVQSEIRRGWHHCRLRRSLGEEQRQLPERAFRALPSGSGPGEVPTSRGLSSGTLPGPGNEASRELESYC
- procedure-details: cell-based or functional assay
Lab note: anything with Cyclic AMP EC50 (nm) at or over 3 nm counts as True; the rest go in False.

-- ask Can YAAGTFISDYSIAMDKIHQQDFVNWLLAQKGKKNDWKHNITQ [(Ala^3)GIP] be said to have Cyclic AMP EC50 (nm) at or above 3 nm?
-- reply False
